- target-system: NocT-M117S (Agrobacterium fabrum, UniProt P35120, M117S)
- Construct: The X-ray structures of the mature free-liganded NocT
- Sequence (P35120 26-283 M117S): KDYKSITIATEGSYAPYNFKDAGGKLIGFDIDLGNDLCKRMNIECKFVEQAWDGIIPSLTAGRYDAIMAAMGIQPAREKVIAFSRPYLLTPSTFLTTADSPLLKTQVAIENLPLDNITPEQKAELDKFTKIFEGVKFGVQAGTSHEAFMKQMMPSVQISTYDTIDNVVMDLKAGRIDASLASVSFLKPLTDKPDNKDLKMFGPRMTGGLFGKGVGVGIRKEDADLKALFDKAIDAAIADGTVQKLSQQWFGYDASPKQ
- assay-name: KD measurement by fluorescence titration, NocT-M117S mutant
measured-metric: Kd (µM)

compound	value-units	numeric-result
N=C(N)NCCCC(C(=O)O)N1C(=O)CCC1C(=O)O (stereo not shown)	µM	37.8
